Target: EGFR (human) (UniProt P00533)
Sequence (P00533 whole entry, looked up): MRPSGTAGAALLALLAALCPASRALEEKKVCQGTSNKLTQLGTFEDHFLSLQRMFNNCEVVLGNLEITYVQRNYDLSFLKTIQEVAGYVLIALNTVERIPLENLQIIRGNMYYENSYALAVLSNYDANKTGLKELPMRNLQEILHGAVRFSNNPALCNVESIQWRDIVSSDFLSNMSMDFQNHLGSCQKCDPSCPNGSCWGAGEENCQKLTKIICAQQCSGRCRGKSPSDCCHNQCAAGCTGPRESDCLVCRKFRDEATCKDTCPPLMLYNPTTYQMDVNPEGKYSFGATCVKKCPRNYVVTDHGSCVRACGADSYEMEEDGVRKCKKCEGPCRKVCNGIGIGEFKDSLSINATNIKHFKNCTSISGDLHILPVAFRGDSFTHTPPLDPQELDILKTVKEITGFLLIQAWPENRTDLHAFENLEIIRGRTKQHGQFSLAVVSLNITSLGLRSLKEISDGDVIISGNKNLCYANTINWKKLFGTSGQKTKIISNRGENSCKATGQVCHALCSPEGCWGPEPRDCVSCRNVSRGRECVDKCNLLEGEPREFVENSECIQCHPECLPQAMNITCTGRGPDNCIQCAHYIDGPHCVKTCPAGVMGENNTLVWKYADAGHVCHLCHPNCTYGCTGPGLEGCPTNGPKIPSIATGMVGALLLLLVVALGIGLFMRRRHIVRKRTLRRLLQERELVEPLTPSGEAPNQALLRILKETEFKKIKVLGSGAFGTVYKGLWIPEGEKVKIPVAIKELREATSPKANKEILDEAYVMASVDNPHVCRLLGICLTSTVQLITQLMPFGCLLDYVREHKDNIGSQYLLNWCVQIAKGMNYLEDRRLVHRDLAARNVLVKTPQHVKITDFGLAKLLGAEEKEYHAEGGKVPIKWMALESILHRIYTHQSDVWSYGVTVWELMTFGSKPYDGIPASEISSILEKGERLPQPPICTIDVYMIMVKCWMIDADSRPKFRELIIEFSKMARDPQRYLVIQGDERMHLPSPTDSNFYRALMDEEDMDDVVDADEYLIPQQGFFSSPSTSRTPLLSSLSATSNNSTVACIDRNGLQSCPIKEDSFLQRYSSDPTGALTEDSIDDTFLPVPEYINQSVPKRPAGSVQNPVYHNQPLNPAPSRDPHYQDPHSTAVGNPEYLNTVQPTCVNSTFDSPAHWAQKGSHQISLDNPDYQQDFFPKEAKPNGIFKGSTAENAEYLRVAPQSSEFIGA
Settings: a431
Measured Parameter: IC50 (nM)

a. OCC(O)Cn1ccc(-c2ccc3ncnc(Nc4ccc(OCc5cccc(F)c5)c(Cl)c4)c3c2)c1 (stereo unspecified)
b. OC[C@@H]1CCCN1C[C@@H](O)Cn1ccc(-c2ccc3ncnc(Nc4ccc(OCc5cccc(F)c5)c(Cl)c4)c3c2)c1
c. Fc1cccc(COc2ccc(Nc3ncnc4ccc(-c5ccn(CCN6CCCCCC6)c5)cc34)cc2Cl)c1
d. Fc1cccc(COc2ccc(Nc3ncnc4ccc(-c5ccn(CCN6CCCCC6)c5)cc34)cc2Cl)c1
Task item: Please rank the 4 items above; order by IC50, the highest number leading. Note for the reader: the ranking is given by listing the labels in the order requested.
Reply: d, a, c, b
(d: 2860 nM, a: 1390 nM, c: 657 nM, b: 252 nM)

a. CCN(CC)C[C@H](O)Cn1ccc(-c2ccc3ncnc(Nc4ccc5c(cnn5Cc5cccc(F)c5)c4)c3c2)c1
b. OC1CCN(CC(O)Cn2ccc(-c3ccc4ncnc(Nc5ccc6c(cnn6Cc6cccc(F)c6)c5)c4c3)c2)CC1 (stereo unspecified)
c. COCCCN1CCOC(Cn2ccc(-c3ccc4ncnc(Nc5ccc6c(cnn6Cc6cccc(F)c6)c5)c4c3)c2)C1 (stereo unspecified)
d. OCc1cc(-c2ccc3ncnc(Nc4ccc(OCc5cccc(F)c5)c(Cl)c4)c3c2)c[nH]1
e. Fc1cccc(COc2ccc(Nc3ncnc4ccc(-c5ccn(C[C@H]6CCO6)c5)cc34)cc2Cl)c1
Task item: Order the items by recorded IC50; the first position goes to the largest value. Note for the reader: the ranking is given by listing the labels in the order requested.
Reply: d, b, c, e, a
(d: 4560 nM, b: 1560 nM, c: 832 nM, e: 384 nM, a: 220 nM)

a. OCCN1CCN(CC(O)Cn2ccc(-c3ccc4ncnc(Nc5ccc(OCc6cccc(F)c6)c(Cl)c5)c4c3)c2)CC1 (stereo unspecified)
b. OC(CN1CCN(Cc2cccnc2)CC1)Cn1ccc(-c2ccc3ncnc(Nc4ccc5c(cnn5Cc5cccc(F)c5)c4)c3c2)c1 (stereo unspecified)
c. Fc1cccc(COc2ccc(Nc3ncnc4ccc(-n5ccc(CNCCN6CCOCC6)c5)cc34)cc2Cl)c1
d. CS(=O)(=O)CCNC1CCN(C[C@@H](O)Cn2ccc(-c3ccc4ncnc(Nc5ccc(OCc6cccc(F)c6)c(Cl)c5)c4c3)c2)CC1
e. COCCNC(=O)c1cn(-c2ccc3ncnc(Nc4ccc(OCc5ccccn5)c(Cl)c4)c3c2)cc1CCO
Task item: Order the items by recorded IC50; the first position goes to the largest value. Note for the reader: the ranking is given by listing the labels in the order requested.
Reply: d, b, a, e, c

a. CCOC(=O)C1CCN(CC(O)Cn2ccc(-c3ccc4ncnc(Nc5ccc(OCc6cccc(F)c6)c(Cl)c5)c4c3)c2)CC1 (stereo unspecified)
b. N[C@H]1CCCN(C(=O)Cn2ccc(-c3ccc4ncnc(Nc5ccc(OCc6cccc(F)c6)c(Cl)c5)c4c3)c2)C1
Task item: // compare measured IC50 between a and b ; output the lower one Return value: the label identifying the chosen record.
Reply: b
(b: 729 nM, a: 2000 nM)
